# collection of GI50 values tested on BaF3
recordedEndpoint: GI50 (µM)

compound: Cc1ccc(NC(=O)c2cccc(C(F)(F)F)n2)cc1-n1cc(-c2cnccc2OCC2CCCO2)cn1 (stereo not drawn)
target: BaF3
qualifierSymbol: >
recordedMeasurement: 10
//
compound: Cc1ccc(NC(=O)c2cccc(C(F)(F)F)n2)cc1-n1cc(-c2cnccc2OCC2CCOCC2)cn1
target: BaF3
qualifierSymbol: >
recordedMeasurement: 10
//
compound: Cc1ccc(NC(=O)c2ccnc(C(F)(F)F)c2)cc1-n1cc(-c2cnccc2OCC2CCCC2)cn1
target: BaF3
qualifierSymbol: >
recordedMeasurement: 10
//
compound: Cc1ccc(NC(=O)c2cc(C(F)(F)F)ccn2)cc1-n1cc(-c2cncc(N3CCN(C)CC3)c2)nn1
target: BaF3
qualifierSymbol: =
recordedMeasurement: 2.84
//
compound: Cc1ccc(NC(=O)c2cccc(C(F)(F)F)n2)cc1-n1cc(-c2cncc(N3CCN(C)CC3)c2)cn1
target: BaF3
qualifierSymbol: =
recordedMeasurement: 4.08
//
compound: Cc1ccc(NC(=O)c2cccc(C(F)(F)F)n2)cc1-n1cc(-c2cncc(N3CC4(COC4)C3)c2)cn1
target: BaF3
qualifierSymbol: =
recordedMeasurement: 9.2
//
compound: Cc1ccc(NC(=O)c2cccc(C(F)(F)F)n2)cc1-n1cc(-c2cnccc2OC2COC2)cn1
target: BaF3
qualifierSymbol: >
recordedMeasurement: 10
//
compound: Cc1ccc(NC(=O)c2cncc(C(F)(F)F)c2)cc1-n1cc(-c2cncc(N3CC4(COC4)C3)c2)cn1
target: BaF3
qualifierSymbol: >
recordedMeasurement: 10
//
compound: Cc1ccc(NC(=O)c2ccnc(C(F)(F)F)c2)cc1-n1cc(-c2cncc(N3CC4(COC4)C3)c2)nn1
target: BaF3
qualifierSymbol: >
recordedMeasurement: 10
//
compound: Cc1ccc(NC(=O)c2ccnc(C(F)(F)F)c2)cc1-n1cc(-c2cnccc2OCC2CCOCC2)cn1
target: BaF3
qualifierSymbol: =
recordedMeasurement: 6.5
//
compound: Cc1ccc(NC(=O)c2cc(C(F)(F)F)ccn2)cc1-n1cc(-c2cncc(N3CCN(C)CC3)c2)cn1
target: BaF3
qualifierSymbol: =
recordedMeasurement: 3.9
//
compound: Cc1ccc(NC(=O)c2cccc(C(F)(F)F)n2)cc1-n1cc(-c2cnccc2OCC2CCCC2)cn1
target: BaF3
qualifierSymbol: >
recordedMeasurement: 10
//
compound: CN1CCN(c2cncc(-c3cn(-c4cc(NC(=O)c5cccc(Cl)n5)ccc4F)nn3)c2)CC1
target: BaF3
qualifierSymbol: =
recordedMeasurement: 3.9

----------
Tested on: BaF3
assayProcedure: Growth of parental BaF3 cells, Cell Titer-Glo, 72 h
Assay type: cell-based
testContext: Mus musculus
Please use 1 (yes) for GI50 under 6 µM and 0 (no) for everything else, ties included.

compound: Cc1ccc(NC(=O)c2cccc(Cl)n2)cc1-n1cc(-c2cncc(N3CCN(C)CC3)c2)cn1 [Compound 17]
target: BaF3
category: 1 (yes)

compound: Cc1ccc(NC(=O)c2ccnc(C(F)(F)F)c2)cc1-n1cc(-c2cnccc2OCC2CCCO2)cn1 (centres unmarked) [Compound 9]
target: BaF3
category: 0 (no)

compound: CN1CCN(c2cncc(-c3cn(-c4cc(NC(=O)c5cc(C(F)(F)F)ccn5)ccc4F)nn3)c2)CC1 [Compound 27]
target: BaF3
category: 1 (yes)

compound: Cc1ccc(NC(=O)c2ccnc(C(F)(F)F)c2)cc1-n1cc(-c2cncc(OC3COC3)c2)cn1 [Compound 7]
target: BaF3
category: 0 (no)

compound: Cc1ccc(NC(=O)c2cccc(Cl)n2)cc1-n1cc(-c2cncc(N3CCN(C)CC3)c2)nn1 [Compound 22]
target: BaF3
category: 1 (yes)

compound: Cc1ccc(NC(=O)c2cc(C(F)(F)F)ccn2)cc1-n1cc(-c2cncc(N3CC4(COC4)C3)c2)nn1 [Compound 41]
target: BaF3
category: 1 (yes)

compound: CN1CCN(c2cncc(-c3cn(-c4cc(NC(=O)c5ccnc(C(F)(F)F)c5)ccc4F)nn3)c2)CC1 [Compound 25]
target: BaF3
category: 1 (yes)

compound: Cc1ccc(NC(=O)c2cccc(Cl)n2)cc1-n1cc(-c2cncc(N3CC4(COC4)C3)c2)cn1 [Compound 36]
target: BaF3
category: 0 (no)
